Molecular target: VEGFR-2 (Homo sapiens, UniProt P35968)
Sequence (P35968 20-1356): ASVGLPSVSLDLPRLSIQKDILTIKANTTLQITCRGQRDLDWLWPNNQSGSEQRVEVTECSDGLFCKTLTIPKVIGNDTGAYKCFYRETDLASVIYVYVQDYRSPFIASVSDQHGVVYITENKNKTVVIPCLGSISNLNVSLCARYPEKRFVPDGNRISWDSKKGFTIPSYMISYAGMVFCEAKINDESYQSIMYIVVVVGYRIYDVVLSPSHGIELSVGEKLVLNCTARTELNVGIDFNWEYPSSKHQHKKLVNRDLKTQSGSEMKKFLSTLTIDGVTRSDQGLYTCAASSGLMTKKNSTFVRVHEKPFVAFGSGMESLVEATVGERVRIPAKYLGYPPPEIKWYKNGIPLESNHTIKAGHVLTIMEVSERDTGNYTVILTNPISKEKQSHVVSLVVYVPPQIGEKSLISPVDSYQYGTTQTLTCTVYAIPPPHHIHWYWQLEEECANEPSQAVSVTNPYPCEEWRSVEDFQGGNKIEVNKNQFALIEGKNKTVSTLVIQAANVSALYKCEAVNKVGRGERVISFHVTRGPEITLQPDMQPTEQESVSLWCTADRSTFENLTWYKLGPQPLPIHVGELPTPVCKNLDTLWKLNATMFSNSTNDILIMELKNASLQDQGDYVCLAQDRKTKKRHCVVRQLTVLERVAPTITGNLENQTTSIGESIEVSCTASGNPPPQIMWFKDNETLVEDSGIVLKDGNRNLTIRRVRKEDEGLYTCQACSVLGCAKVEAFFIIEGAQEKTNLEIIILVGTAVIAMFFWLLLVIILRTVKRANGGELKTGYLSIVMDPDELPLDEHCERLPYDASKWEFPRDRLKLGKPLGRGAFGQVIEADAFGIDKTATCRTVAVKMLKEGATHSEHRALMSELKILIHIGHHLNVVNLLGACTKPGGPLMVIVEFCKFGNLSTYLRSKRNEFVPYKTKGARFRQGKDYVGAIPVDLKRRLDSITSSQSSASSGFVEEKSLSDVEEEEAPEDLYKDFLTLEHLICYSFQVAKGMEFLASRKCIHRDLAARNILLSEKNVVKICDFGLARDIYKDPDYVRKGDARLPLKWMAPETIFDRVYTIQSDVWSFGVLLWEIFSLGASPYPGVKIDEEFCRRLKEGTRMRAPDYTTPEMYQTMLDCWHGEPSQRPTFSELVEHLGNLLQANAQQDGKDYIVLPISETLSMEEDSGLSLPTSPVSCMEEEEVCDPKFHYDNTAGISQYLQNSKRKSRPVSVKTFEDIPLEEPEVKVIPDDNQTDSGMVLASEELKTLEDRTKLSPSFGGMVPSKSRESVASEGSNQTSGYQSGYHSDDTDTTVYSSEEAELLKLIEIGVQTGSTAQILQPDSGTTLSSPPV
pIC50: −log10 of the molar value.
assay.metric: pIC50

Known results for compounds:
Measured on VEGFR-2 (Homo sapiens, UniProt P35968), `CC(=O)Nc1ccc(Oc2nnc(-c3ccc(Cl)cc3)c3ccccc23)cc1` has a documented pIC50 of 6.26

Record for `O=C(Nc1ccccc1)Nc1ccc(Oc2nnc(-c3ccc(Cl)cc3)c3ccccc23)cc1` under target or system VEGFR-2 (Homo sapiens, UniProt P35968): pIC50 reported as 6.71

Lab note: compound `O=C(Nc1ccc(Oc2nnc(-c3ccc(Cl)cc3)c3ccccc23)cc1)c1ccccc1` tested on VEGFR-2 (Homo sapiens, UniProt P35968); recorded pIC50 was 6.48

(1) CC(=NNC(=O)c1ccncc1)c1ccc(Nc2nnc(-c3ccc(Cl)cc3)c3ccccc23)cc1
(2) CC(=NNC(N)=S)c1ccc(Nc2nnc(-c3ccc(Cl)cc3)c3ccccc23)cc1
# input 1 or 2 : whose pIC50 is greater? Identify your pick by its label.
# output 1
(1: 6.83, 2: 6.43)
